target: Trace amine-associated receptor 1 (Homo sapiens); assay: activators of TAAR1 calcium signal, triplicate retest – Fluo-8 calcium fluorescence, CHO RD-HGA16 cells, confirmation (AID 651783); conditions: CHO RD-HGA16 TAAR1, Fluo-8 calcium fluorescence; at 3 µM; hits give high values; scaled: DMSO 0%, maximal phenethylamine 100%;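 note: promiscuous G-alpha-16 overexpression reroutes TAAR1 signalling from cAMP to calcium; peak fluorescence divided by basal pre-compound fluorescence per well; 0% = DMSO wells and 100% = phenethylamine at EC100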
Screen size: about 2,400 compounds; about 2,000 (83%) were called active. So high a share suggests a set chosen from earlier hits. Only a sample is shown.

| compound.structure.string | activation (%) |
| --- | --- |
| Nc1nnn(CC(=O)N/N=C/c2ccccc2)n1 | 61.6 |
| Nc1cc(OC(=O)c2ccccc2Br)nn1S(=O)(=O)c1ccccc1 | 59.1 |
| O=C(c1noc2c1CCCC2)N1CCc2ccccc2C1 | 68 |
| Cc1ccn2c(=O)c(C(=O)NCCC3=CCCCC3)c(O)nc2c1 | 106 |
| CCCOc1ccc(-c2c(C(=O)N/N=C/c3ccco3)nnn2-c2nonc2N)cc1 | 73.1 |
| Nc1cccc2c1C(=O)N(Cc1nnc(-c3ccccc3Br)o1)C2=O | 100 |
